- ASSAY_SYSTEM: PI3K-α kinase (p110α/p85α) (Homo sapiens)
- Construct: purchased Invitrogen PV4788
- ASSAY_NOTES: Determination of PI3K kinase activity (ADP Transcreener, fluorescence polarization)
- Type: biochemical
- ASSAY_CONTEXT: Table 1; ATP 10 μM; read-out: PI3K-α/nM (IC50 of inhibitory activity against PI3K kinase)
PROPERTY_NAME: IC50 (nM)
Value expressed in nM; do not type the unit.

>>> val("CC(C)(c1cc(-c2cnc(N)cc2Cl)nc(N2CCOCC2)n1)S(=O)(=O)c1cccc(F)c1 [Compound S-70]")
22
>>> val("COC(C)(C)c1cc(-c2cnc(N)cc2C(F)(F)F)nc(N2CCOCC2)n1 [Compound S-71]")
9
>>> val("Nc1cc(C(F)(F)F)c(-c2cc(C3(S(=O)(=O)c4cccc(F)c4)CC3)nc(N3CCOCC3)n2)cn1 [Compound S-57]")
18
>>> val("CS(=O)(=O)C1(c2cc(-c3cnc(N)cc3C(F)(F)F)nc(N3CCOCC3)n2)CC1 [Compound S-1]")
16

# input for lookup
Prompt: Param item = CC(C)(c1cc(-c2cnc(N)nc2C(F)(F)F)nc(N2CCOCC2)n1)S(C)(=O)=O [Compound S-45] ; retrieve measured IC50.
Completion: 35

---

- ASSAY_SYSTEM: PI3K-γ kinase (p110γ) (Homo sapiens, UniProt P48736)
- Construct: purchased Invitrogen PV4786
- Sequence (P48736 whole entry): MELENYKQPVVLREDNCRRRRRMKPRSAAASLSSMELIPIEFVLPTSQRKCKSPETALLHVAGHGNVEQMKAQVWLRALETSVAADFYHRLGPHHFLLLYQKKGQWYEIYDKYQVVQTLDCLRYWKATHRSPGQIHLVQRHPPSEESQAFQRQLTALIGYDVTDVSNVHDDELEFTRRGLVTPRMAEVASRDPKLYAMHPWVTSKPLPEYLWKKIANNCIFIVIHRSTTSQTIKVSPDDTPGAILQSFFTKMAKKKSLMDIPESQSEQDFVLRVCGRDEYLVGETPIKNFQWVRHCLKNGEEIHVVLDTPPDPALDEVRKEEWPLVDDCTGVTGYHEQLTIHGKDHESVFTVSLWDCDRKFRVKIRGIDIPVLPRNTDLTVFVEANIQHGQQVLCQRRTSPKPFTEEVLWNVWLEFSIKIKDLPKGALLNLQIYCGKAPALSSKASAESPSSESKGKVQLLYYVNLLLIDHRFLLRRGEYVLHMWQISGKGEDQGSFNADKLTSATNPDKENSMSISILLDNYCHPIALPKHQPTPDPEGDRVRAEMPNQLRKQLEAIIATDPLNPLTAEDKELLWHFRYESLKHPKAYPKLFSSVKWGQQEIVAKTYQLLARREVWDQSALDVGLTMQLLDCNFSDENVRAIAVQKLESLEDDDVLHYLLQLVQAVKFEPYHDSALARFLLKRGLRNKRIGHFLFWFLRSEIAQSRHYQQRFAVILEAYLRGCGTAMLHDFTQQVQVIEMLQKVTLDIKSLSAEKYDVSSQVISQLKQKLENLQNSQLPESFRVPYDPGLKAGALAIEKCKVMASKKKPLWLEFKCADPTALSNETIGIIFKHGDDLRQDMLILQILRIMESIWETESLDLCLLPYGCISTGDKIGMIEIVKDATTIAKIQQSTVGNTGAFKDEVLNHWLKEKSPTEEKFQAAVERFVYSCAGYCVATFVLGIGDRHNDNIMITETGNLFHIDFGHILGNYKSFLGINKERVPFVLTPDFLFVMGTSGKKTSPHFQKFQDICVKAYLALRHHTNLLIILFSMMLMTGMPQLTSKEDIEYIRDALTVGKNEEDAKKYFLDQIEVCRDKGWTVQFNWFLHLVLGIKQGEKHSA
- ASSAY_NOTES: Determination of PI3K kinase activity (ADP Transcreener, fluorescence polarization)
- Format: biochemical
- ASSAY_CONTEXT: Table 1; ATP 10 μM; read-out: PI3K-γ/nM (IC50 of inhibitory activity against PI3K kinase)
Rule: measured IC50 below 500 nM gets YES; anything equal to or greater than 500 nM gets NO.

>>> class("C[C@H]1COCCN1c1nc(-c2cnc(N)cc2Cl)cc(C(C)(C)O)n1 [Compound S-73]")
"NO"
>>> class("C[C@H]1COCCN1c1nc(-c2cnc(N)nc2)cc(C2(S(C)(=O)=O)CCC2)n1 [Compound S-33]")
"YES"
>>> class("CS(=O)(=O)C1(c2cc(-c3cnc(N)cc3C(F)(F)F)nc(N3CCOCC3)n2)CCC1 [Compound S-4]")
"YES"

Prompt: Dear reviewer, please state whether CC(C)(c1cc(-c2cnc(N)cc2Cl)nc(N2CCOCC2)n1)S(C)(=O)=O [Compound S-38] has IC50 strictly beneath 500 nM.
Completion: YES

Prompt: Entry CS(=O)(=O)C1(c2cc(-c3cnc(N)cc3C(F)(F)F)nc(N3CCOCC3)n2)CCCC1 [Compound S-10] please
Completion: NO

---

- ASSAY_SYSTEM: PI3K-α kinase (p110α/p85α) (Homo sapiens)
- Construct: purchased Invitrogen PV4788
- ASSAY_NOTES: Determination of PI3K kinase activity (ADP Transcreener, fluorescence polarization)
- Type: biochemical
- ASSAY_CONTEXT: Table 2; ATP 10 μM; read-out: PI3K-α/nM (IC50 of inhibitory activity against PI3K-α kinase)
PROPERTY_NAME: log10(IC50) (log10 of the value in nM)
Please note: log10 values; quantity IC50; unit nM.

>>> val("Nc1cc(F)c(-c2cc(C3(S(=O)(=O)C4CC4)CC3)nc(N3CCOCC3)n2)cn1")
1.68
>>> val("CC(C)(c1cc(-c2cnc(N)cc2C(F)(F)F)nc(N2CCOCC2)n1)S(=O)(=O)c1ccc(F)cc1")
1.77
>>> val("CS(=O)(=O)C1(c2cc(-c3cnc(N)cc3Cl)nc(N3CCOCC3)n2)CC1")
0.60

Prompt: Param item = CS(=O)(=O)C1(c2cc(-c3cnc(N)c(C(F)(F)F)c3)nc(N3CCOCC3)n2)CC1 ; retrieve measured log10(IC50).
Completion: 2.93

Prompt: Entry Nc1cc(Cl)c(-c2cc(C3(S(=O)(=O)c4ccccc4F)CC3)nc(N3CCOCC3)n2)cn1 please
Completion: 0.95

---

- Tested on: NIH3T3 cells
- ASSAY_NOTES: Cytotoxicity by MTT assay, NIH3T3
- Type: cell-based
- ASSAY_CONTEXT: 72 h, cytotoxicity class, read-out: NIH3T3 cell (IC50/nM)
PROPERTY_NAME: IC50

Prompt: Query for NIH3T3 cells: what IC50 does the record show for CC(C)(O)c1cc(-c2cnc(N)cc2C(F)(F)F)nc(N2CCOCC2)n1 ?
Completion: 1000 to 3000 nM

---

Catalogue of IC50 readings, one per entry.
- ASSAY_SYSTEM: PI3K-α kinase (p110α/p85α) (Homo sapiens, UniProt P42336)
- Construct: purchased Invitrogen PV4788
- Sequence (P42336 whole entry): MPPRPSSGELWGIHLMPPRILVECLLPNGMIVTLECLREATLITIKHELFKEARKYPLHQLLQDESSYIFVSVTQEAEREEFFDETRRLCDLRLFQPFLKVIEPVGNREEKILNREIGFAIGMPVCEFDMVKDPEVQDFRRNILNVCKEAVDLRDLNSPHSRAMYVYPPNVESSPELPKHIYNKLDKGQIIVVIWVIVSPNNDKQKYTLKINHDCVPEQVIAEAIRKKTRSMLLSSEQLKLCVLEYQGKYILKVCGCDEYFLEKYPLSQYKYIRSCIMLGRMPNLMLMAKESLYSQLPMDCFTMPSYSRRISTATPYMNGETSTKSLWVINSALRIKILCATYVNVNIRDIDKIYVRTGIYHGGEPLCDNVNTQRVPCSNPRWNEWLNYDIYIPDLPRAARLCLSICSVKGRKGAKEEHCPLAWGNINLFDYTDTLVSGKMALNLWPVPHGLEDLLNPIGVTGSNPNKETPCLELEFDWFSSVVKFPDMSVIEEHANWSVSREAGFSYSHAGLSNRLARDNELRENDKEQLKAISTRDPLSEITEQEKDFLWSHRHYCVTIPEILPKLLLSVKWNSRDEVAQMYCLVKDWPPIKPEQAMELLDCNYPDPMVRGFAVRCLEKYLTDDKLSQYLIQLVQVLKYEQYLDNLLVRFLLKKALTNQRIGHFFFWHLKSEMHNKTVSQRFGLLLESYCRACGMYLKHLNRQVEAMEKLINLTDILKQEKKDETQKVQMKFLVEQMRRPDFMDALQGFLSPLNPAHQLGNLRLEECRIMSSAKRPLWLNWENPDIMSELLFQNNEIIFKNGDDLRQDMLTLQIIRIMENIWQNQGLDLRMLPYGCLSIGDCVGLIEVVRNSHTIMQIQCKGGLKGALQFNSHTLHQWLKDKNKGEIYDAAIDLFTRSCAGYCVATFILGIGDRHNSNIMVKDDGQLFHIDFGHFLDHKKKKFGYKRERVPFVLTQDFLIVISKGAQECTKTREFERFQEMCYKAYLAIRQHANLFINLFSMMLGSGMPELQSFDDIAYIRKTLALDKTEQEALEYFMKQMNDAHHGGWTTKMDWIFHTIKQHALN
- Sequence (P27986 whole entry partner): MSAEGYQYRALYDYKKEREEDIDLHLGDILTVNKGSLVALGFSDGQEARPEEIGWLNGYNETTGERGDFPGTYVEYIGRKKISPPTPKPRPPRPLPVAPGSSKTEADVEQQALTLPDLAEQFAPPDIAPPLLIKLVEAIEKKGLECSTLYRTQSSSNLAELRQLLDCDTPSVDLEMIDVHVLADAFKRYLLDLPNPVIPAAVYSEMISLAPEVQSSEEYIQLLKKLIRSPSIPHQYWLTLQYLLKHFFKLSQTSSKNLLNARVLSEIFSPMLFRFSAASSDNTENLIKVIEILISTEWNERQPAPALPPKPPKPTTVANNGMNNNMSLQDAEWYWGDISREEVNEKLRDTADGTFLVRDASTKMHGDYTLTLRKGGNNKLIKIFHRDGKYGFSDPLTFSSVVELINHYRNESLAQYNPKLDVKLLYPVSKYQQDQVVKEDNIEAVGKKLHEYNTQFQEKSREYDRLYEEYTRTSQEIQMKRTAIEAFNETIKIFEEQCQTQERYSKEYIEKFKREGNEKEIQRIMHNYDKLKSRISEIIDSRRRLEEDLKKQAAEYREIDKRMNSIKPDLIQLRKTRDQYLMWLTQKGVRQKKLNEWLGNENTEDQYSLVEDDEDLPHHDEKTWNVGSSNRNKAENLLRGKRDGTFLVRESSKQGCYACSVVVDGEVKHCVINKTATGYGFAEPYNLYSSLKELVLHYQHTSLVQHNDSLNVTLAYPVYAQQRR
- ASSAY_NOTES: Determination of PI3K kinase activity (ADP Transcreener, fluorescence polarization)
- Type: biochemical
- ASSAY_CONTEXT: Table 1; ATP 10 μM; read-out: PI3K-α/nM (IC50 of inhibitory activity against PI3K kinase)
Value expressed in nM; do not type the unit.

Recorded IC50, per entry:
>>> val("Nc1cc(F)c(-c2cc(C3(S(=O)(=O)C4CC4)CC3)nc(N3CCOCC3)n2)cn1 [Compound S-88]")
48
>>> val("CC(C)(c1cc(-c2cnc(N)cc2C(F)(F)F)nc(N2CCOCC2)n1)S(=O)(=O)c1ccccc1F [Compound S-65]")
22

Prompt: Param item = CC(C)(c1cc(-c2cnc(N)cc2F)nc(N2CCOCC2)n1)S(C)(=O)=O [Compound S-81] ; retrieve measured IC50.
Completion: 43

Prompt: Entry CC(C)S(=O)(=O)C(C)(C)c1cc(-c2cnc(N)cc2C(F)(F)F)nc(N2CCOCC2)n1 [Compound S-22] please
Completion: 55

Prompt: Entry CS(=O)(=O)C1(c2cc(-c3cnc(N)nc3C(F)(F)F)nc(N3CCOCC3)n2)CC1 [Compound S-46] please
Completion: 6

---

- ASSAY_SYSTEM: PI3K-β kinase (p110β/p85α) (Homo sapiens)
- Construct: purchased Millipore 14-603
- Sequence (P42338 whole entry): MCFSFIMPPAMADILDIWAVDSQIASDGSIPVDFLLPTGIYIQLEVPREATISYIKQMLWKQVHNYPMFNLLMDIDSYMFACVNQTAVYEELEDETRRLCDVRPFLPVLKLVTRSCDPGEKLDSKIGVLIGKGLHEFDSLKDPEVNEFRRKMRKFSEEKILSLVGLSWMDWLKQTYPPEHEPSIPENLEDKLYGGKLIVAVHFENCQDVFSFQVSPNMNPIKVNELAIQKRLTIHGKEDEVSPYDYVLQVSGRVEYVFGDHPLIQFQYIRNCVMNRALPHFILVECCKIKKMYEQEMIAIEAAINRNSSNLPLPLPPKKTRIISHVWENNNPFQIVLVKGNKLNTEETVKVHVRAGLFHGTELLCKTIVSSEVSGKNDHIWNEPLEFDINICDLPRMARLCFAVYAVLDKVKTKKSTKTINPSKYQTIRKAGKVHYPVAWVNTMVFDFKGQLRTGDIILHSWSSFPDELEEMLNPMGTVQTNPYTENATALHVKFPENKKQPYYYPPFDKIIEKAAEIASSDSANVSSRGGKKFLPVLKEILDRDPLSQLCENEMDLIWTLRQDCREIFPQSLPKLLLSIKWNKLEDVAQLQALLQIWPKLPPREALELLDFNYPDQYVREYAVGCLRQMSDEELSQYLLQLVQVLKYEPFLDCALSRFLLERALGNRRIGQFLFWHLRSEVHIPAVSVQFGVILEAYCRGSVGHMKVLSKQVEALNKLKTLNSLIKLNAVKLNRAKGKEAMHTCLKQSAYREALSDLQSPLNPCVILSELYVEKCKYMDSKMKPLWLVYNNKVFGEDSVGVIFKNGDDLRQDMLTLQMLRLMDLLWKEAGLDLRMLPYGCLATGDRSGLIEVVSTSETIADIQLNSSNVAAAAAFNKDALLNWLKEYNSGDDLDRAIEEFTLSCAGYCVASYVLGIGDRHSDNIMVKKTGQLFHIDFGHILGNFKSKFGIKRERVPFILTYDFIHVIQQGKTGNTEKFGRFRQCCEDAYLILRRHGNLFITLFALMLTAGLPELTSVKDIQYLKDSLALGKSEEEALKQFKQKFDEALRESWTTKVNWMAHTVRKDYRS
- Sequence (P27986 whole entry partner): as the sequence (P27986 whole entry partner) above
- ASSAY_NOTES: Determination of PI3K kinase activity (ADP Transcreener, fluorescence polarization)
- Type: biochemical
- ASSAY_CONTEXT: Table 1; ATP 10 μM; read-out: PI3K-β/nM (IC50 of inhibitory activity against PI3K kinase)
Catalogue of IC50 readings, one per entry.
Value expressed in nM; do not type the unit.

>>> val("Nc1cc(Cl)c(-c2cc(C3(S(=O)(=O)c4ccccc4F)CC3)nc(N3CCOCC3)n2)cn1")
73
>>> val("Nc1cc(C(F)(F)F)c(-c2cc(C3(S(=O)(=O)c4cccc(F)c4)CC3)nc(N3CCOCC3)n2)cn1")
284
>>> val("CCS(=O)(=O)C(C)(C)c1cc(-c2cnc(N)cc2C(F)(F)F)nc(N2CCOCC2)n1")
1740
>>> val("C[C@@H]1COCCN1c1nc(-c2cnc(N)cc2C(F)(F)F)cc(C(C)(C)O)n1")
797
>>> val("CC(C)S(=O)(=O)C1(c2cc(-c3cnc(N)cc3F)nc(N3CCOCC3)n2)CC1")
763

Prompt: Param item = Nc1cc(Cl)c(-c2cc(C3(S(=O)(=O)C4CC4)CC3)nc(N3CCOCC3)n2)cn1 ; retrieve measured IC50.
Completion: 386

Prompt: Entry C[C@H]1COCCN1c1nc(-c2cnc(N)nc2)cc(C2(S(C)(=O)=O)CCC2)n1 please
Completion: 115

Prompt: Entry CCS(=O)(=O)C1(c2cc(-c3cnc(N)cc3C(F)(F)F)nc(N3CCOCC3)n2)CCC1 please
Completion: 327

Prompt: Entry CC(C)(c1cc(-c2cnc(N)cc2Cl)nc(N2CCOCC2)n1)S(=O)(=O)c1cccc(F)c1 please
Completion: 525

---

- ASSAY_SYSTEM: PI3K-α kinase (p110α/p85α) (Homo sapiens)
- Construct: purchased Invitrogen PV4788
- ASSAY_NOTES: Determination of PI3K kinase activity (ADP Transcreener, fluorescence polarization)
- Assay type: biochemical
- ASSAY_CONTEXT: Table 2; ATP 10 μM; read-out: PI3K-α/nM (IC50 of inhibitory activity against PI3K-α kinase)
PROPERTY_NAME: IC50

Recorded IC50, per entry:
>>> val("CNC1(c2cc(-c3cnc(N)cc3C(F)(F)F)nc(N3CCOC[C@@H]3C)n2)CCC1 [Compound S-27]")
"285 nM"
>>> val("CS(=O)(=O)NC1(c2cc(-c3cnc(N)cc3Cl)nc(N3CCOCC3)n2)CC1 [Compound S-90]")
"75 nM"
>>> val("CC(C)(c1cc(-c2cnc(N)cc2Cl)nc(N2CCOCC2)n1)S(=O)(=O)c1cccc(F)c1 [Compound S-70]")
"22 nM"

# input for lookup
Prompt: Query for PI3K-α kinase (p110α/p85α) (Homo sapiens): what IC50 does the record show for COC(C)(C)c1cc(-c2cnc(N)cc2Cl)nc(N2CCOC[C@@H]2C)n1 [Compound S-75] ?
Completion: 23 nM
